Here's what we have: pKi numbers for UniProt P09958.
Sequence (P09958 whole entry): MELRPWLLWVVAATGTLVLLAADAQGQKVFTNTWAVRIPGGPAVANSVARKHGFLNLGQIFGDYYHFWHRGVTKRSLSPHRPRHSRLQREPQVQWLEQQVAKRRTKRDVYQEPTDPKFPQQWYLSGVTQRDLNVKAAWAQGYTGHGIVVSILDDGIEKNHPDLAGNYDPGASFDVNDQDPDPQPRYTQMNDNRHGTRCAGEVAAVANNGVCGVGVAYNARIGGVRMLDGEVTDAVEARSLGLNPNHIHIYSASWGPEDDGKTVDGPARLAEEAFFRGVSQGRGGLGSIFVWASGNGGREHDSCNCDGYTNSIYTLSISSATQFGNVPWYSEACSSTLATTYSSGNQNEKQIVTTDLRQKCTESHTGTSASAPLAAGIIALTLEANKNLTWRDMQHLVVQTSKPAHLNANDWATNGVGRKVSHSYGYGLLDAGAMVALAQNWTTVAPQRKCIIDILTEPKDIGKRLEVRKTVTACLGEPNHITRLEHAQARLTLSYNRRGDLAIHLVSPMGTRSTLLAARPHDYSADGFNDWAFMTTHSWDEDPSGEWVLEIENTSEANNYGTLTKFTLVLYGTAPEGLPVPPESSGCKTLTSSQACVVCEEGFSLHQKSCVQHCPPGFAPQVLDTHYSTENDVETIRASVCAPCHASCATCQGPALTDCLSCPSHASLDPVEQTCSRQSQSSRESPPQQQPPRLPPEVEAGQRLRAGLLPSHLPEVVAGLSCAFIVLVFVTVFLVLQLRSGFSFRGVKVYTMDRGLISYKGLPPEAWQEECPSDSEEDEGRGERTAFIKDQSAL
Bear in mind: pKi is minus log10 of a mol/L concentration; give just that figure.

CCCCCCCCCC(=O)N[C@@H](CCCN=C(N)N)C(=O)N[C@H](C(=O)N[C@@H](CCCCN)C(=O)NCc1ccc(C(=N)N)cc1)C(C)C; 8.48

Ask: Value lookup for pKi; key = CC(C)[C@H](NC(=O)[C@H](CCCNC(=N)N)NC(=O)Cc1ccccc1)C(=O)N[C@@H](CCCNC(=N)N)C(=O)NCC1CCN(C(=N)N)CC1
Reply: 7.28

Ask: Entry CC(=O)N[C@@H](CCCNC(=N)N)C(=O)N[C@H](C(=O)N[C@@H](CCCNC(=N)N)C(=O)NCc1ccc(C(=N)N)cc1)C(C)C please
Reply: 9.00

Ask: # repeat for CC(C)[C@H](NC(=O)[C@H](CCCNC(=N)N)NC(=O)Cc1ccccc1)C(=O)N[C@@H](CCCNC(=N)N)C(=O)NCc1ccc(CN)cc1
Reply: 6.20

---

Target: UniProtKB P09958
Residues, ends and D or L forms follow the SMILES beside them. *: point of attachment. Agmatine = N=C(N)NCCCCN*; PhAc = O=C(Cc1ccccc1)*
Experimental Endpoint: pKi
FYI, pKi means -log10 of a concentration in mol per litre.

Ask: Quick one: pKi of CCCCCCCCCC(=O)N[C@@H](CCCN=C(N)N)C(=O)N[C@H](C(=O)N[C@@H](CCCN=C(N)N)C(=O)NCc1ccc(C(=N)N)cc1)C(C)C ?
Reply: 8.80

Ask: Also, CC(C)[C@H](NC(=O)[C@H](CCCNC(=N)N)NC(=O)Cc1ccccc1)C(=O)N[C@@H](CCCNC(=N)N)C(=O)NCCCCNC(=N)N (PhAc-Arg-Val-Arg-Agmatine) please.
Reply: 7.11

Ask: Please do the same for CC(C)[C@H](NC(=O)[C@H](CCCN=C(N)N)NC(=O)Cc1ccccc1)C(=O)N[C@@H](CCCN=C(N)N)C(=O)NCCCCCN=C(N)N as well.
Reply: 5.97

These measurements were taken from ChEMBL document CHEMBL1156804.
